The measured values listed here are drawn from PubChem BioAssay AID588790.

target: Beta-2 adrenergic receptor (Homo sapiens) (UniProt P07550); test: qHTS assay of beta-arrestin-biased ligands of beta2-adrenergic receptor: Hit Validation with GloSensor; conditions: W9-Glo22F cells, GloSensor cAMP luminescence, beta2AR agonism
Sequence (P07550 whole entry, looked up): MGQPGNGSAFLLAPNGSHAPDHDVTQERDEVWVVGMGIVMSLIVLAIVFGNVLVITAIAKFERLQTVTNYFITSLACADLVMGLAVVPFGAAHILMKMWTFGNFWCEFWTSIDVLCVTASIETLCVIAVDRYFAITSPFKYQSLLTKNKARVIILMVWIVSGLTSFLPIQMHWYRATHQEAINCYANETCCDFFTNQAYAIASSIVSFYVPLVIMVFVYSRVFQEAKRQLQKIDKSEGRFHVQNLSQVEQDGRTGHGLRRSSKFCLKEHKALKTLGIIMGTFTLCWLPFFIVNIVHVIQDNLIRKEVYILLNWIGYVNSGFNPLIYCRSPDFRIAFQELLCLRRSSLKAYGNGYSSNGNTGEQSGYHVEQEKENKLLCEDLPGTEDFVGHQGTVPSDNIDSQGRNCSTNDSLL
The campaign covered roughly 1,200 compounds. About 85 (7%) were called active. Calls follow the shape of the full dose curve. The list comes from a sample in which actives are over-represented; it also holds close analogues and randomly drawn compounds.
Respond with a class label; see active, inactive

The examples below pair each entry with its known result.
COMPOUND: CCN1CCN(C(=S)NC(=O)c2cccc(Br)c2)CC1
MEASURED_TARGET: Beta-2 adrenergic receptor (Homo sapiens) (UniProt P07550)
CLASS_LABEL: inactive
//
COMPOUND: CCCCCC1CC(/C(C)=N/NC(N)=O)OC1=O (configuration not stated)
MEASURED_TARGET: Beta-2 adrenergic receptor (Homo sapiens) (UniProt P07550)
CLASS_LABEL: active
//
COMPOUND: COCC(=O)Nc1c(C(=O)Nc2ccc3c(c2)OCCO3)oc2ccccc12
MEASURED_TARGET: Beta-2 adrenergic receptor (Homo sapiens) (UniProt P07550)
CLASS_LABEL: inactive
//
COMPOUND: CCNc1nc(NC(C)CC)nc(ON=C(C)C)n1 (configuration not stated)
MEASURED_TARGET: Beta-2 adrenergic receptor (Homo sapiens) (UniProt P07550)
CLASS_LABEL: active
//
COMPOUND: CCNC(=S)N/N=C/c1sccc1C
MEASURED_TARGET: Beta-2 adrenergic receptor (Homo sapiens) (UniProt P07550)
CLASS_LABEL: inactive
//
COMPOUND: C=CCn1c(CSc2nc3ccccc3s2)n[nH]c1=S
MEASURED_TARGET: Beta-2 adrenergic receptor (Homo sapiens) (UniProt P07550)
CLASS_LABEL: active
//
COMPOUND: O=C1c2ccccc2-c2onc3ccc(Oc4ccccc4)c1c23
MEASURED_TARGET: Beta-2 adrenergic receptor (Homo sapiens) (UniProt P07550)
CLASS_LABEL: active
//
COMPOUND: COc1cccc(N2CCN(C(=O)/C=C/c3ccco3)CC2)c1
MEASURED_TARGET: Beta-2 adrenergic receptor (Homo sapiens) (UniProt P07550)
CLASS_LABEL: inactive

Query block: Give the logged outcome of this assay for the following compound: `CCNC(=S)N/N=C/c1cccs1`
Result block: active

Query block: Give the logged outcome of this assay for the following compound: `CC(C)NC(=S)N/N=C/c1cccs1`
Result block: inactive

###

biological target: Beta-2 adrenergic receptor (Homo sapiens); experiment: qHTS assay of beta-arrestin-biased ligands of beta2-adrenergic receptor: Hit Validation with GloSensor; conditions: W9-Glo22F cells, GloSensor cAMP luminescence, beta2AR agonism
The whole screen tested about 1,200 compounds, of which about 85 (7%) were called active. Calls come from the whole dose curve. The sample as a whole holds a higher share of actives than the screen did.
Respond with a class label; see 1 (yes) = active, 0 (no) = inactive

The examples below pair each entry with its known result.
MOLECULE: CCn1c(SCC(=O)N/N=C/C=C\c2ccco2)nc2ccccc21
MEASURED_TARGET: Beta-2 adrenergic receptor (Homo sapiens)
CLASS_LABEL: 0 (no)
--
MOLECULE: CCCC(=O)N(c1ccc(F)cc1)C1C=CS(=O)(=O)C1 (stereo not given)
MEASURED_TARGET: Beta-2 adrenergic receptor (Homo sapiens)
CLASS_LABEL: 0 (no)
--
MOLECULE: CCOC(=O)c1c(C)nc2c(c1-c1ccccc1)C(=O)CC(C)(C)C2
MEASURED_TARGET: Beta-2 adrenergic receptor (Homo sapiens)
CLASS_LABEL: 0 (no)
--
MOLECULE: COc1cc(/C=C2\CC(C(C)(C)C)C/C(=C\c3cc(OC)c(OC)c(OC)c3)C2=O)cc(OC)c1OC (stereo not given)
MEASURED_TARGET: Beta-2 adrenergic receptor (Homo sapiens)
CLASS_LABEL: 0 (no)
--
MOLECULE: CCN(CC)c1ccc(/C=N/Nc2nc(C)cc(C)n2)cc1
MEASURED_TARGET: Beta-2 adrenergic receptor (Homo sapiens)
CLASS_LABEL: 0 (no)
--
MOLECULE: O=C(/C=C/c1ccc(N2CCCCC2)c([N+](=O)[O-])c1)c1ccc(S(=O)(=O)N2CCCC2)cc1
MEASURED_TARGET: Beta-2 adrenergic receptor (Homo sapiens)
CLASS_LABEL: 0 (no)
--
MOLECULE: COc1cc2c(cc1OC)C(c1cc3ccccc3oc1=O)=NC(C)(C)C2
MEASURED_TARGET: Beta-2 adrenergic receptor (Homo sapiens)
CLASS_LABEL: 1 (yes)
--
MOLECULE: NC(=S)NN=C(Cc1ccccc1)Cc1ccccc1
MEASURED_TARGET: Beta-2 adrenergic receptor (Homo sapiens)
CLASS_LABEL: 1 (yes)
--
MOLECULE: COc1cc(/C=C2\CC/C(=C\c3ccc(OCCO)c(OC)c3)C2=O)ccc1OCCO
MEASURED_TARGET: Beta-2 adrenergic receptor (Homo sapiens)
CLASS_LABEL: 1 (yes)
--
MOLECULE: COc1c(-c2ccc(O)c(O)c2)oc2cc(O)cc(O)c2c1=O
MEASURED_TARGET: Beta-2 adrenergic receptor (Homo sapiens)
CLASS_LABEL: 1 (yes)

Query block: Give the logged outcome of this assay for the following molecule: `NNc1ccc(Cl)nn1`
Result block: 0 (no)

Query block: Give the logged outcome of this assay for the following molecule: `C/C(=N\NC(=S)NC1CCCCC1)c1ccc(C)o1`
Result block: 0 (no)

###

target: Beta-2 adrenergic receptor (Homo sapiens); assay: qHTS assay of beta-arrestin-biased ligands of beta2-adrenergic receptor: Hit Validation with GloSensor; details: W9-Glo22F cells, GloSensor cAMP luminescence, beta2AR agonism; also: potency is read from the fitted curve at half-maximal effect
Hit rate of the full screen: of about 1,200 compounds, about 85 (7%) were called active. The list comes from a sample in which actives are over-represented; it also holds close analogues and randomly drawn compounds.
ATTRIBUTE_MEASURED: Potency

Some compounds with recorded Potency:
COMPOUND: CCOC(=O)C1=C(C)N(c2ccc(C)cc2)C(=O)/C1=C\c1ccc(O)c(OC)c1
MEASURED_TARGET: Beta-2 adrenergic receptor (Homo sapiens)
Potency: 18.4 µM (active)
//
COMPOUND: CCOC(=O)C1=C(C)N(c2ccc(OC)cc2)C(=O)/C1=C\c1ccc(O)c(OCC)c1
MEASURED_TARGET: Beta-2 adrenergic receptor (Homo sapiens)
Potency: inactive
//
COMPOUND: Cc1ccc(NC(=S)NC(NC(=O)c2ccco2)C(Cl)(Cl)Cl)cc1 (stereo not given)
MEASURED_TARGET: Beta-2 adrenergic receptor (Homo sapiens)
Potency: inactive
//
COMPOUND: N/C(=C\C(=O)c1cc(Cl)ccc1O)C(Cl)(Cl)Cl
MEASURED_TARGET: Beta-2 adrenergic receptor (Homo sapiens)
Potency: 23.1 µM (active)

Turning now to a further compound:
Query block: Entry `O=C(/C=C/c1ccc(F)cc1)NC(=S)N1CCN(Cc2ccccc2)CC1` : reported Potency = ?
Result block: inactive

###

target: Beta-2 adrenergic receptor (Homo sapiens) (UniProt P07550); assay: qHTS assay of beta-arrestin-biased ligands of beta2-adrenergic receptor: Hit Validation with GloSensor; conditions: W9-Glo22F cells, GloSensor cAMP luminescence, beta2AR agonism
About 85 (7%) of roughly 1,200 compounds were called active. Calls follow the shape of the full dose curve. This excerpt belongs to a sample that is enriched for actives.
Respond with a class label; see active, inactive

The examples below pair each entry with its known result.
MOLECULE: COCCCNC(=S)N/N=C/c1cccc(OC)c1O
CLASS_LABEL: inactive
//
MOLECULE: O=C(NC(=S)N1CCCCCC1)c1ccccc1Cl
CLASS_LABEL: inactive
//
MOLECULE: C=CCNC(=S)N/N=C(\C)c1cccc(OC)c1
CLASS_LABEL: inactive
//
MOLECULE: Cc1ccc2cccc(SCC(=O)Nc3ccc(F)cc3)c2n1
CLASS_LABEL: inactive
//
MOLECULE: Oc1ccccc1/C=N/Nc1nc2ccccc2o1
CLASS_LABEL: inactive

Query block: Give the logged outcome of this assay for the following molecule: `COc1cc(CNc2ccc(O)cc2)cc(Br)c1OCc1ccccc1`
Result block: active

Query block: Give the logged outcome of this assay for the following molecule: Cc1nn2c(nc1=O)NNC2(C)C(C)(C)C (stereo not given)
Result block: inactive

Query block: Give the logged outcome of this assay for the following molecule: `O=C(NCCN1CCOCC1)c1ccccc1Cl`
Result block: active

###

target: Beta-2 adrenergic receptor (Homo sapiens) (UniProt P07550); assay: qHTS assay of beta-arrestin-biased ligands of beta2-adrenergic receptor: Hit Validation with GloSensor; details: W9-Glo22F cells, GloSensor cAMP luminescence, beta2AR agonism
Hit rate of the full screen: of about 1,200 compounds, about 85 (7%) were called active. The call rests on the fitted dose curve. The sample holds actives, similar compounds and a random draw of the others, so the mix is not that of the screen.
Respond with a class label; see class 1 for active, class 0 for inactive

The examples below pair each entry with its known result.
COMPOUND: COc1ccc(NS(=O)(=O)c2ccc3oc(SC4CCOC4=O)nc3c2)cc1 (configuration not stated)
MEASURED_TARGET: Beta-2 adrenergic receptor (Homo sapiens) (UniProt P07550)
CLASS_LABEL: class 0

COMPOUND: S=c1[nH]nc(-c2ccccc2)n1C1C=CCCC1 (configuration not stated)
MEASURED_TARGET: Beta-2 adrenergic receptor (Homo sapiens) (UniProt P07550)
CLASS_LABEL: class 0

Query block: Give the logged outcome of this assay for the following compound: `O=C(Oc1c(-c2ccco2)oc2ccccc2c1=O)c1cccnc1`
Result block: class 1
